tested-system: recombinant human plasminogen activator inhibitor-1 (PAI-1) (Homo sapiens, UniProt P05121)
Construct: purchased Molecular Innovations, Royal Oak, Mich
Sequence (P05121 24-402): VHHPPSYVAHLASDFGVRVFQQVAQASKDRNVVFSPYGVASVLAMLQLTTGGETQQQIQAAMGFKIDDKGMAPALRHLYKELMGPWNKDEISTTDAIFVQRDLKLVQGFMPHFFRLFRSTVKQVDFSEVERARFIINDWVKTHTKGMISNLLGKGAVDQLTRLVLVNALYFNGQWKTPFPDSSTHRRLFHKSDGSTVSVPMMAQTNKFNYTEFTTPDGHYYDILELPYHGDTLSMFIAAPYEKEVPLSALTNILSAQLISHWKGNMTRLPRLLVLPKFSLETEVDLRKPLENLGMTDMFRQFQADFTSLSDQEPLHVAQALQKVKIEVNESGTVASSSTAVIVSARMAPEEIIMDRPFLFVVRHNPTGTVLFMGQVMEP
test-method-notes: Screening for PAI-1 inhibition (residual tPA activity, Spectrozyme-tPA chromogenic substrate)
Assay type: biochemical
run-parameters: test compound at 100 Um; pH 6.6 buffer, 140 nM PAI-1, 70 nM tPA
Procedure: Screening for PAI-1 inhibition. Test compounds are dissolved in DMSO at a final concentration of 10 Mm, then diluted 100× in physiologic buffer. […] Following the second incubation, Spectrozyme-Tpa (American Diagnostica, Greenwich, Conn.), a chromogenic substrate for Tpa, is added and absorbance read at 405 nm at 0 and 60 minutes. […]
endpoint-name: inhibition at 100 µM (%)

> print(dat)
                           smiles.structure  u  recorded.number
1  O=C(O)CO/N=C/c1cccc(-c2cccc(OCc3cccc(Cl)c3)c2)c1  %               91
2  O=C(O)CO/N=C/c1ccc(OCc2cccc(Br)c2)c(OCc2cccc(Br)c2)c1  %               88
3  O=C(O)CO/N=C/c1cccc(OCc2cccc(C(F)(F)F)c2)c1OCc1cccc(C(F)(F)F)c1  %               90
4  O=C(O)CO/N=C/c1ccc(-c2ccc(OCc3ccc(Cl)c(Cl)c3)cc2)cc1  %               58

* * *

tested-system: recombinant human plasminogen activator inhibitor-1 (PAI-1) (Homo sapiens)
Construct: purchased Molecular Innovations, Royal Oak, Mich
test-method-notes: Screening for PAI-1 inhibition (residual tPA activity, Spectrozyme-tPA chromogenic substrate)
Format: biochemical
run-parameters: test compound at 100 Um; pH 6.6 buffer, 140 nM PAI-1, 70 nM tPA
inhibition at 100 µM by entry:
endpoint-name: inhibition at 100 µM (%)

> print(dat)
                           smiles.structure         endpoint.name  recorded.number
1  CCn1cc(/C=N/OCC(=O)O)c2cc(OCc3ccc(C(C)(C)C)cc3)ccc21  inhibition at 100 µM               93
2  Cc1ccc(COc2ccc(-c3cccc(/C=N/OCC(=O)O)c3)cc2)cc1  inhibition at 100 µM               34
3  CC(C)(C)c1ccc(OCC#Cc2cccc(/C=N/OCC(=O)O)c2)cc1  inhibition at 100 µM               52
4  O=C(O)CO/N=C/c1ccc(-c2ccc(OCc3cccc(Cl)c3)cc2)cc1  inhibition at 100 µM                5
5  O=C(O)CO/N=C/c1cc(OCc2ccc(Br)cc2)ccc1OCc1ccc(Br)cc1  inhibition at 100 µM               85
6  O=C(O)CO/N=C/c1cccc(-c2ccc(OCc3cccc(C(F)(F)F)c3)cc2)c1  inhibition at 100 µM               78
7  O=C(O)CO/N=C/c1ccc(C#CCOc2cccc(Cl)c2)cc1  inhibition at 100 µM               42
8  Cc1cccc(COc2ccc(OCc3cccc(C)c3)c(/C=N/OCC(=O)O)c2)c1  inhibition at 100 µM               69

* * *

tested-system: recombinant human plasminogen activator inhibitor-1 (PAI-1) (Homo sapiens, UniProt P05121)
Construct: purchased Molecular Innovations, Royal Oak, Mich
test-method-notes: Screening for PAI-1 inhibition (residual tPA activity, Spectrozyme-tPA chromogenic substrate)
Assay type: biochemical
run-parameters: test compound at 100 Um; pH 6.6 buffer, 140 nM PAI-1, 70 nM tPA
inhibition at 100 µM by entry:
endpoint-name: inhibition at 100 µM (%)

> print(dat)
                           smiles.structure  recorded.number
1  C=CCn1cc(/C=N/OCC(=O)O)c2cc(OCc3ccc(Br)cc3)ccc21               83
2  C=CCn1cc(/C=N/OCC(=O)O)c2cc(OCc3ccc(Cl)c(Cl)c3)ccc21               72
3  O=C(O)CO/N=C/c1ccc(-c2cccc(OCc3cccc(Br)c3)c2)cc1               77
4  Cn1cc(/C=N/OCC(=O)O)c2cc(OCc3ccc(Cl)c(Cl)c3)ccc21               91
5  O=C(O)CO/N=C/c1cccc(C#CCOc2cc(Cl)cc(Cl)c2)c1               69

* * *

inhibition at 100 µM by entry:
tested-system: recombinant human plasminogen activator inhibitor-1 (PAI-1) (Homo sapiens, UniProt P05121)
Construct: purchased Molecular Innovations, Royal Oak, Mich
test-method-notes: Screening for PAI-1 inhibition (residual tPA activity, Spectrozyme-tPA chromogenic substrate)
Assay type: biochemical
run-parameters: test compound at 100 Um; pH 6.6 buffer, 140 nM PAI-1, 70 nM tPA
endpoint-name: inhibition at 100 µM (%)

> print(dat)
                           smiles.structure                             tested.system         endpoint.name  recorded.number
1  C#CCn1cc(/C=N/OCC(=O)O)c2cc(OCc3cccc(Br)c3)ccc21  recombinant human plasminogen activator inhibitor-1 (PAI-1) (Homo sapiens, UniProt P05121)  inhibition at 100 µM               92
2  O=C(O)CO/N=C/c1ccc(C#CCOc2cc(Cl)cc(Cl)c2)cc1  recombinant human plasminogen activator inhibitor-1 (PAI-1) (Homo sapiens, UniProt P05121)  inhibition at 100 µM               68
3  O=C(O)CO/N=C/c1cccc(-c2cccc(OCc3ccc(Br)cc3)c2)c1  recombinant human plasminogen activator inhibitor-1 (PAI-1) (Homo sapiens, UniProt P05121)  inhibition at 100 µM               88
4  CCn1cc(/C=N/OCC(=O)O)c2cc(OCc3cccc(C)c3)ccc21  recombinant human plasminogen activator inhibitor-1 (PAI-1) (Homo sapiens, UniProt P05121)  inhibition at 100 µM               26
5  O=C(O)CO/N=C/c1cccc(OCc2ccc(F)c(F)c2)c1OCc1ccc(F)c(F)c1  recombinant human plasminogen activator inhibitor-1 (PAI-1) (Homo sapiens, UniProt P05121)  inhibition at 100 µM               48
6  O=C(O)CO/N=C/c1cc(OCc2ccc(F)cc2)ccc1OCc1ccc(F)cc1  recombinant human plasminogen activator inhibitor-1 (PAI-1) (Homo sapiens, UniProt P05121)  inhibition at 100 µM               96
7  CCn1cc(/C=N/OCC(=O)O)c2cc(OCc3cccc(Br)c3)ccc21  recombinant human plasminogen activator inhibitor-1 (PAI-1) (Homo sapiens, UniProt P05121)  inhibition at 100 µM               80
8  O=C(O)CO/N=C/c1ccc(OCc2ccc(F)c(F)c2)c(OCc2ccc(F)c(F)c2)c1  recombinant human plasminogen activator inhibitor-1 (PAI-1) (Homo sapiens, UniProt P05121)  inhibition at 100 µM               72

* * *

tested-system: recombinant human plasminogen activator inhibitor-1 (PAI-1) (Homo sapiens)
Construct: purchased Molecular Innovations, Royal Oak, Mich
test-method-notes: Screening for PAI-1 inhibition (residual tPA activity, Spectrozyme-tPA chromogenic substrate)
Type: biochemical
run-parameters: test compound at 100 Um; pH 6.6 buffer, 140 nM PAI-1, 70 nM tPA
endpoint-name: inhibition at 100 µM (%)

> print(dat)
                            smiles.structure  recorded.number
 1  CCn1cc(/C=N/OCC(=O)O)c2cc(OCc3cccc(C(F)(F)F)c3)ccc21               56
 2  O=C(O)CO/N=C/c1ccc(OCc2cccc(C(F)(F)F)c2)cc1OCc1cccc(C(F)(F)F)c1               91
 3  O=C(O)CO/N=C/c1cccc(-c2cccc(OCc3ccc(C(F)(F)F)cc3)c2)c1               84
 4  O=C(O)CO/N=C/c1ccc(-c2ccc(OCc3cccc(C(F)(F)F)c3)cc2)cc1                8
 5  C#CCn1cc(/C=N/OCC(=O)O)c2cc(OCc3ccc(C(F)(F)F)cc3)ccc21               90
 6  O=C(O)CO/N=C/c1cn(Cc2ccccc2)c2ccc(OCc3ccc(Cl)c(Cl)c3)cc12               76
 7  O=C(O)CO/N=C/c1ccc(OCc2ccc(Br)cc2)cc1OCc1ccc(Br)cc1               90
 8  O=C(O)CO/N=C/c1cc(OCc2cccc(Cl)c2)cc(OCc2cccc(Cl)c2)c1               86
 9  O=C(O)CO/N=C/c1cn(Cc2ccccc2)c2ccc(OCc3cc(C(F)(F)F)cc(C(F)(F)F)c3)cc12               57
10  O=C(O)CO/N=C/c1cccc(-c2ccc(OCc3ccc(Br)cc3)cc2)c1               75
11  C=CCn1cc(/C=N/OCC(=O)O)c2cc(OCc3ccccc3Cl)ccc21               93
12  O=C(O)CO/N=C/c1cn(Cc2ccccc2)c2ccc(OCc3cccc(C(F)(F)F)c3)cc12               79
